assay: NCI Yeast Anticancer Drug Screen. Data for the rad18 strain (AID 177); settings: S. cerevisiae rad18 mutant growth inhibition; at 11.0 µM
This is part of a sample that, as a whole, favours compounds with a hit. Of some 79,000 tested, about 15% had one in any assay. The source made the active and inactive calls. Rule as the data show it: active = growth inhibition above about 70%; inactive = the rest.
One label from this list, please: true = active, false = inactive

Illustrative cases are given below, each with its answer.
>  <Molecule>
C/C(=N\NC(=S)NNC(=S)N(C)c1ccccc1)c1ccccn1

>  <Assigned class>
true

$$$$
>  <Molecule>
O=C1C=CC(=Nc2ccccc2)c2ccccc21

>  <Assigned class>
false

$$$$
>  <Molecule>
O=S1(=O)c2ccccc2N=C(c2ccccc2Cl)CC1c1ccc(F)cc1 (stereo unspecified)

>  <Assigned class>
false

$$$$
>  <Molecule>
O/N=C/C1c2ccccc2-c2ccccc21

>  <Assigned class>
false

$$$$
>  <Molecule>
CC(=O)Oc1ccc(N2C(=O)C3c4[nH]c5ccccc5c4C4CCC(C(C)(C)C)CC4C3C2=O)cc1 (stereo unspecified)

>  <Assigned class>
true

$$$$

IN: Field: outcome | Entry: CC(=O)C1=C(O)C2(C)c3c(O)c(C)c(O)c(C(C)=O)c3OC2(Sc2ccccc2)CC1=O (stereo unspecified)
OUT: false

IN: Would you kindly repeat that for "CCCCCCCCN1C(=O)c2ccccc2C1=O" ?
OUT: false

IN: Would you kindly repeat that for "CN=C(N)N/N=C(\C)c1ccc2oc3ccc(/C(C)=N/NC(N)=NC)cc3c2c1" ?
OUT: true

IN: Would you kindly repeat that for "CCc1nc(N)nc(N)c1-c1ccc(NCCCCCCN)c([N+](=O)[O-])c1" ?
OUT: false

IN: Would you kindly repeat that for "O=[N+]([O-])/C(C(Cl)=C(Cl)Cl)=C1/OCCS1" ?
OUT: true

IN: Would you kindly repeat that for "O=Cc1coc2ccccc2c1=O" ?
OUT: false

* * *

Assign growth inhibition to each entry below.
assay: NCI Yeast Anticancer Drug Screen. Data for the wt2 strain (AID 169);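 also: 0% = growth of vehicle-treated yeast cultures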; settings: S. cerevisiae wt2 strain growth inhibition; at 11.0 µM; active compounds read high
This is part of a sample that, as a whole, favours compounds with a hit. Of some 79,000 tested, about 15% had one in any assay.
One number for each entry, in %.

Dear colleague, could you send me growth inhibition for each of the items below? Thanks.
1. CN(C)CCNc1cccc2sc3ccc(O)cc3c(=O)c12
2. CCCCCCSc1nc(COC(=O)NC)c(COC(=O)NC)n1C
3. CCOC(=O)CNC(=O)c1[nH]cnc1/N=N/N(C)C
4. Cc1cc(Cl)ccc1NC(=O)/C(Cl)=C1/Sc2ccccc2NC1=O
5. O=Nc1ccc(Nc2ccccc2)cc1
6. CC[C@@]1(OC(=O)CN(C)C)C(=O)OCc2c1cc1n(c2=O)Cc2cc3c(N)cccc3nc2-1

OUT:
1. 0
2. -4
3. 0
4. -2
5. -59
6. 3

* * *

test: NCI Yeast Anticancer Drug Screen. Data for the rad50 strain (AID 155);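 also: 0% = growth of vehicle-only cultures of the same strain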; settings: S. cerevisiae rad50 strain growth inhibition; at 33.0 µM; active compounds read high
About 79,000 compounds went through this panel and 15% of them were active in at least one assay; those are over-represented in the sample as a whole. Activity calls are given as the source filed them. No stated cut-off is given here; in the data, active means growth inhibition above about 70%; inactive means the rest.
Readout label: growth inhibition

Solved entries (count: 8):
>  <Molecule>
CCC(C)(c1ccc(O)c(C)c1)c1ccc(O)c(C)c1

>  <Readout label>
growth inhibition

>  <Value reported>
97% (active)

$$$$
>  <Molecule>
C(=N/NC1=NCCN1)/c1c2ccccc2c(/C=N\NC2=NCCN2)c2ccccc12

>  <Readout label>
growth inhibition

>  <Value reported>
94% (active)

$$$$
>  <Molecule>
CC(=O)O[C@H]1C(=O)[C@@]2(C)[C@H]([C@H](OC(=O)c3ccccc3)[C@]3(O)C[C@H](OC(=O)[C@H](O)[C@@H](NC(=O)c4ccccc4)c4ccccc4)C(C)=C1C3(C)C)[C@]1(OC(C)=O)CO[C@@H]1C[C@@H]2O

>  <Readout label>
growth inhibition

>  <Value reported>
-1% (inactive)

$$$$
>  <Molecule>
Cc1ccc2occ/c(=N\Nc3ccccc3)c2c1

>  <Readout label>
growth inhibition

>  <Value reported>
57% (inactive)

$$$$
>  <Molecule>
CN(C)Cc1cccc(CN(C)C)[c]1[Sn]([Br])([c]1ccccc1)[c]1ccccc1

>  <Readout label>
growth inhibition

>  <Value reported>
82% (active)

$$$$
>  <Molecule>
CCN(CC)CC(O)C1CCC(c2ccccc2)CC1 (stereo unspecified)

>  <Readout label>
growth inhibition

>  <Value reported>
61% (inactive)

$$$$
>  <Molecule>
OB(O)c1ccccc1C#Cc1ccccc1B(O)O

>  <Readout label>
growth inhibition

>  <Value reported>
84% (active)

$$$$
>  <Molecule>
CCN1/C(=C/c2ccc3ccccc3[n+]2CC)C=Cc2ccccc21

>  <Readout label>
growth inhibition

>  <Value reported>
97% (active)

$$$$

Dear colleague, could you send me growth inhibition for each of the items below? Thanks.
1. OCCNCCOc1ccc(/C(=C(/Cl)c2ccccc2)c2ccccc2)cc1
2. Cc1onc(-c2ccccc2Cl)c1C1=N/C(=C/c2cc(Cl)cc(Cl)c2O)C(=O)O1
3. O=Nn1c2ccccc2c2cc([N+](=O)[O-])ccc21
4. COc1ccc(/C=C(\NC(=O)c2ccccc2)C(=O)NN(C)c2ccnc3cc(Cl)ccc23)cc1OC

OUT:
["98% (active)", "2% (inactive)", "89% (active)", "30% (inactive)"]

Dear colleague, could you send me growth inhibition for each of the items below? Thanks.
1. Cn1c2nc3ccccc3c-2nc2ccccc21
2. N#C/C(=C/N1C(=O)/C(=C/c2ccc([N+](=O)[O-])cc2)SC1=S)c1nc2ccccc2s1
3. O=C(CNS(=O)(=O)Cc1ccccc1)NNc1ccccc1

OUT:
97% (active)
40% (inactive)
17% (inactive)

Dear colleague, could you send me growth inhibition for each of the items below? Thanks.
1. O=c1[nH]cc(/C=N\Nc2ccccc2)c(=O)[nH]1
2. CN(N=O)C(=O)N[C@@H](C=O)[C@@H](O)[C@H](O)[C@H](O)CO
3. COc1cccc(C(c2cc3c(cc2O)OCO3)N2CCOCC2)c1OC (stereo unspecified)
4. CCCCCCCCCCCc1nc(N)n[nH]1
5. O=C1C(Cl)=C(Cl)C(Cl)(Cl)C(Cl)C1(Cl)Cl (stereo unspecified)
6. CCCCCCCCN1C(=O)c2ccccc2C1=O

OUT:
1: 49% (inactive); 2: -1% (inactive); 3: 14% (inactive); 4: 92% (active); 5: 99% (active); 6: 10% (inactive)
